- System: DGAT
- TEST METHOD NOTES: DGAT Phospholipid FlashPlate Assay
- Type: biochemical
- SETUP CONDITIONS: DGAT pellet, DAG-coated PL-FlashPlate, 14C-Pal-CoA, 37° C. for 1 hour; read-out: DGAT Inhibition Activity IC50
- Procedure: DGAT Phospholipid FlashPlate Assay […] 1,2-Dioleoyl-sn-glycerol (DAG, 10 mmoles) was diluted to 500 μM with coating buffer (CB). […] Plates were sealed with Top-seal and read on a Topcount instrument. Calculation of IC50: The IC50 values for each compound were generated using an Excel template. […] The percent inhibition values of reactions in the presence of compounds were calculated, and plotted against compound concentrations. […]
Where a name gives a salt, the structure may show the parent alone.
PARAMETER MEASURED: pIC50
pIC50 field: float, defined as -log10 of concentration (mol/L).

[Q] Record request: pIC50 value, item CCOC(=O)N1CC[C@H](Nc2ccc(NC(=O)c3cc4c(Cl)cccc4s3)cn2)C1 [Example 47, hydrochloride]
[A] 6.55

[Q] Then CC(C)(C)OC(=O)N1CCN(c2ccc(NC(=O)c3cc4c(Cl)cccc4s3)cc2)CC1 ?
[A] 6.29

[Q] Then CCOc1cccc2c1cc(C(=O)Nc1ccc(O[C@H]3CCN(C(=O)OC(C)(C)C)C3)cc1)n2CC ?
[A] 6.15

[Q] Then CCOC(=O)N1CC[C@H](Nc2ccc(NC(=O)c3cc4c(Cl)c(Cl)ccc4n3CC)cn2)C1 [Example 57, hydrochloride] ?
[A] 6.26

Further cases:
[Q] Record request: pIC50 value, item COCCN(C)c1ccc(NC(=O)c2cc3cc(Cl)ccc3n2C)cn1 [Example 42, hydrochloride]
[A] 6.12

[Q] Then COCCN(C)c1ccc(NC(=O)c2[nH]c3c(OC)cccc3c2C)cn1 ?
[A] 6.93

* * *

- Tested on: DGAT
- TEST METHOD NOTES: DGAT Phospholipid FlashPlate Assay
- Format: biochemical
- SETUP CONDITIONS: DGAT pellet, DAG-coated PL-FlashPlate, 14C-Pal-CoA, 37° C. for 1 hour; read-out: DGAT Inhibition Activity IC50
The threshold is 300 nM. Values of IC50 beneath it are tagged Criterion met; values meeting or exceeding it are tagged Criterion not met.

Consider the worked cases shown below.
[Q] Determine if CCCOc1cccc2c1cc(C(=O)Nc1ccc(N3CCN(C(=O)CC(C)(C)C(=O)O)CC3)nc1)n2CC shows IC50 strictly lower than 300 nM.
[A] Criterion met

[Q] Then CCOc1cccc2c1cc(C(=O)Nc1ccc(N3CCN(C(=O)[C@@H]4CCC[C@H]4C(=O)O)CC3)cc1)n2CC ?
[A] Criterion not met

[Q] Then CCOC(=O)N1CC[C@H](Nc2ccc(NC(=O)c3cc4cc(Cl)ccc4n3CC)cn2)C1 ?
[A] Criterion not met

# input for lookup
[Q] Determine if CCn1c(C(=O)Nc2ccc(N3CCN(C(=O)OC(C)(C)C)CC3)nc2)cc2c(OC)cccc21 shows IC50 strictly lower than 300 nM.
[A] Criterion met

* * *

- System: DGAT
- TEST METHOD NOTES: DGAT Phospholipid FlashPlate Assay
- Format: biochemical
- SETUP CONDITIONS: DGAT pellet, DAG-coated PL-FlashPlate, 14C-Pal-CoA, 37° C. for 1 hour; read-out: DGAT Inhibition Activity IC50
Where a name gives a salt, the structure may show the parent alone.
PARAMETER MEASURED: IC50 (nM)
// note: answer is a bare numeric in nM

Below, each entry is followed by its recorded IC50 result.
[Q] Record request: IC50 value, item CCn1c(C(=O)Nc2ccc(N3CCN(C(=O)CC(C)(C)C(=O)O)CC3)nc2)cc2c(Cl)c(Cl)ccc21
[A] 80

[Q] Then CCn1c(C(=O)Nc2ccc(N3CCN(C(=O)[C@H]4CC[C@H](C(=O)O)CC4)CC3)nc2)cc2c(OC)cccc21 ?
[A] 385

[Q] Then CCn1c(C(=O)Nc2ccc(N(C)CCOC)nc2)cc2cc(OC(F)(F)F)ccc21 [Example 33, hydrochloride] ?
[A] 662

Proceeding to the next compound to report its IC50.
[Q] Record request: IC50 value, item CCOc1cccc2c1cc(C(=O)Nc1ccc(N3CCN(C(=O)[C@H]4CC[C@H](C(=O)O)CC4)CC3)cc1)n2CC
[A] 980

Data provenance is patent US8124766B2.
